Data credit: patent US8404692B2

STUDY TARGET: CDK2/E (Homo sapiens, UniProt P24941)
ASSAY NAME: In vitro kinase assay CDK2/E
CONDITION INFO: in vitro kinase data
pKi: −log10 of the molar value.
PROPERTY MEASURED: pKi

[
  {
    "STRUCTURE": "Cc1c(-c2ccnc(Nc3ccc(F)cc3)n2)c(C)n2c1C(=O)NCC2",
    "VALUE REPORTED": 5.95
  }
]

---

STUDY TARGET: human CDK7/cyclin H (Homo sapiens, UniProt P50613)
Sequence (P50613 whole entry): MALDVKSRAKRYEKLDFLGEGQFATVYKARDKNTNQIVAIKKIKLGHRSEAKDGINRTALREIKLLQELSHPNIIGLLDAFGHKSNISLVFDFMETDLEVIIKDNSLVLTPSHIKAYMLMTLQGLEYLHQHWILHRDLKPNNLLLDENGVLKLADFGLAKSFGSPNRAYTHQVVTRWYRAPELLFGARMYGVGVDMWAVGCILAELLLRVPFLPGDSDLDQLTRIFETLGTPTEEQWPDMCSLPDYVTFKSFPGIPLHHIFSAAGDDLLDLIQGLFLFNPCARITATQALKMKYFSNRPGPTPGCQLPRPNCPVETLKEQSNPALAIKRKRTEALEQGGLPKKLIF
Sequence (P51946 whole entry partner): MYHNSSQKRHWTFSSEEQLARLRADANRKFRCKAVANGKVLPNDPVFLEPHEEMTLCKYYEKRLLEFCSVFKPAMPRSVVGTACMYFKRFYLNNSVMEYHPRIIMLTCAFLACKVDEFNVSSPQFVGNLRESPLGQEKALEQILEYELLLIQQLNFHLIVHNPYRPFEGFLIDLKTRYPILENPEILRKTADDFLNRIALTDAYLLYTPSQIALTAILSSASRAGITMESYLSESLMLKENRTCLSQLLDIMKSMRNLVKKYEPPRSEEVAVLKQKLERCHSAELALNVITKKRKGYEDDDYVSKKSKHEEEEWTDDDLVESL
ASSAY NAME: CDK 7 and 9 assays: CDK7/H
CONDITION INFO: in vitro kinase data

[
  {
    "STRUCTURE": "Cc1c(-c2ccnc(Nc3ccc(F)cc3)n2)c(C)n2c1C(=O)NCC2",
    "Ki (nM)": 2990
  },
  {
    "STRUCTURE": "Cc1c(-c2ccnc(Nc3ccc(N4CCOCC4)cc3)n2)c(C)n2c1C(=O)NCC2",
    "Ki (nM)": 3410
  },
  {
    "STRUCTURE": "COc1cc(Nc2nccc(-c3c(C)c4n(c3C)CCNC4=O)n2)ccc1N1CCOCC1",
    "Ki (nM)": 2790
  }
]
